target: Serotonin Type 2 (5-HT2) (Rattus norvegicus)
Sequence (P14842 whole entry): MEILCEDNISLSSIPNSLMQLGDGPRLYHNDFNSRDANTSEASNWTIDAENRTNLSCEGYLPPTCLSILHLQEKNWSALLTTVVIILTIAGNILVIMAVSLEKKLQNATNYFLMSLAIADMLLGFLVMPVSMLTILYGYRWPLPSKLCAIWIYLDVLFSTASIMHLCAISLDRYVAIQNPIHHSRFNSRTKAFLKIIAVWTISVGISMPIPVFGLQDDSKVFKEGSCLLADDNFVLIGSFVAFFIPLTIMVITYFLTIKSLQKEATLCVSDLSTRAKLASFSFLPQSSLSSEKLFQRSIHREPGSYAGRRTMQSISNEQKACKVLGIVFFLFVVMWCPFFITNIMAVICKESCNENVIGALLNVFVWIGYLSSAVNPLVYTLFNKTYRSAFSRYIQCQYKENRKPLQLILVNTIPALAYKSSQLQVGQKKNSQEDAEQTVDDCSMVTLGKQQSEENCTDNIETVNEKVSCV
experimentalEndpoint: pIC50
One number for each entry, as −log10 of the molar value.

Examples with answers:
Incoming: Suppose we examine the compound O=C1CC2(CCCC2)CC(=O)N1CCCCN1CCN(c2n[s+]([O-])c3ccccc23)CC1 (stereo not drawn) [Reference # ii, reference compound] ; what pIC50 value has been reported?
Outgoing: 6.56

Incoming: // pIC50 lookup, key: O=C1CC2(CCCC2)C(O)C(=O)N1CCCCN1CCN(c2nsc3ccccc23)CC1 (stereo not drawn) [Reference # 10]
Outgoing: 8.96

Continue with the next compound.
Incoming: Which pIC50 value is on record for O=C1CC2(CCCC2)CC(=O)N1CCCCN1CCN(C2=NS(=O)(=O)c3ccccc32)CC1 [Reference # 1] ?
Outgoing: 4.60
